Parameter intrinsic clearance, rat liver microsomes: see the listing below.
Response body: numeric value in mL/min/kg, unit text excluded.

Illustrative cases are given below, each with its answer.
- compound: "CC1Cc2ccccc2N1C(=O)CN1CCC(n2c(=O)[nH]c3ccccc32)CC1 (stereo unspecified)"
  result.number: 1030
- compound: "CCN(Cc1nc2cc(Cl)ccc2c(=O)[nH]1)C(=O)COc1ccccc1Cc1ccccc1"
  result.number: 1470
- compound: "COc1ccc(OC)c(S(=O)(=O)NCCC(=O)Nc2ccccc2C)c1"
  result.number: 616
- compound: "CCC(Nc1cnn(C)c1)c1ccc2c(c1)OCCO2 (stereo unspecified)"
  result.number: 332
- compound: "CN1C(=O)[C@@H](NC(=O)c2nnc(Cc3ccccc3)[nH]2)COc2ccccc21"
  result.number: 104
- compound: "Cc1cnc(N2CCSCC2)nc1N1CCSCC1"
  result.number: 2640
- compound: "Cc1nc(N)c2c(C(F)(F)F)cc(C3CCN(C(=O)Cc4ccc(F)cc4)CC3)nc2n1"
  result.number: 874
- compound: "CCS(=O)(=O)N(C)c1ccc(N(C)C)cc1"
  result.number: 2980

Value of measured intrinsic clearance, rat liver microsomes for the entry CSCCc1nc(-c2cc(C)nc3cc(F)ccc23)n(CCO)n1 : 147

---

experimental.endpoint: intrinsic clearance, human liver microsomes (L/h/kg)
Response body: numeric value in L/h/kg, unit text excluded.

Illustrative cases are given below, each with its answer.
- smiles.notation: "COc1ccccc1-n1cc(CNC(=O)N(C)Cc2c(C)nn(C)c2C)cn1"
  readout.unit: "L/h/kg"
  result.number: 4.53
- smiles.notation: "Cc1ccc(F)c(-c2noc(N)c2C)c1"
  readout.unit: "L/h/kg"
  result.number: 1.18
- smiles.notation: "CCN(CC)S(=O)(=O)c1ccc2c(c1)CCN2CC(=O)NCc1ccccc1F"
  readout.unit: "L/h/kg"
  result.number: 20.2

Value of measured intrinsic clearance, human liver microsomes for the entry COc1ccc(CNc2ncc(-c3ccc4c(c3)OCO4)n2C)c(OC)c1 : 12.1

Value of measured intrinsic clearance, human liver microsomes for the entry Cc1ccc(C(=O)Nc2ccccc2-c2ccccc2)o1 : 15.4

---

Parameter intrinsic clearance, rat liver microsomes: see the listing below.
Response body: numeric value in mL/min/kg, unit text excluded.

- smiles.notation: "N#Cc1cccc(-c2ccc(=O)n3c2[C@@H]2C[C@@H](CN(Cc4cccs4)C2)C3)c1"
  result.number: 2000
- smiles.notation: "COc1ccc(N2N=C(C)/C(=C(\\C)Nc3ccc(S(N)(=O)=O)cc3)C2=O)cc1"
  result.number: 39.3
- smiles.notation: "c1nc(N2CCC3(CCCCC3)C2)c2cn[nH]c2n1"
  result.number: 710
- smiles.notation: "CC1(C)[C@@H]2C[C@H]1[C@@]1(O)[C@@H](C2)Oc2c(ccc(O)c2C(=O)NCCc2ccccn2)[C@@H]1O"
  result.number: 910

Value of measured intrinsic clearance, rat liver microsomes for the entry CN(CCN1CCOC1=O)C(=O)c1cc2cc(Br)ccc2o1 : 107

Value of measured intrinsic clearance, rat liver microsomes for the entry Cn1cc(NC(=O)c2csc(Cc3ccccc3)n2)cn1 : 64.8

Value of measured intrinsic clearance, rat liver microsomes for the entry Cc1cc(N(C)C)nc(-n2cnc(C#N)n2)n1 : 79.2

Value of measured intrinsic clearance, rat liver microsomes for the entry Cc1cc(C)nc(NCc2cnc(C)c(C)c2)n1 : 162

Value of measured intrinsic clearance, rat liver microsomes for the entry Cc1cccc(C)c1NCc1noc(C2CC2)n1 : 1540
